biological target: KRAS G13D (Homo sapiens (Human), UniProt P01116+P62937, G13D); test: Ras-Raf disruption/FRET/MOA assay (BRAF RBD, Cyclophilin A); assay type: biochemical; settings: read-out: KRAS G13D FRET data IC50
Sequence (P01116 other isoform, or with tags, fused parts or gaps G13D): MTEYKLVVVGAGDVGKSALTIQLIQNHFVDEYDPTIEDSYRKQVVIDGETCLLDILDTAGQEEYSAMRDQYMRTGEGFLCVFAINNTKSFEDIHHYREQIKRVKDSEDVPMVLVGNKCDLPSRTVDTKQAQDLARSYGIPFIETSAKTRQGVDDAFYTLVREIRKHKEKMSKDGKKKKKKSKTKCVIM
Sequence (P62937 whole entry): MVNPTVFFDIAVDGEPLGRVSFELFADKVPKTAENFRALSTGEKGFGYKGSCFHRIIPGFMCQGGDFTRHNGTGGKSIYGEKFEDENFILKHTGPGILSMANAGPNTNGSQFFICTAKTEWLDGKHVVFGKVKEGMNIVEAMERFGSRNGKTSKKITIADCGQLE
property.name: IC50

1. CCn1c(-c2cccnc2[C@H](C)OC)c2c3cc(ccc31)-c1csc(n1)C[C@H](NC(=O)[C@H](C(C)C)N(C)C(=O)N1CC(C(=O)O)C1)C(=O)N1CCC[C@H](N1)C(=O)OCC(C)(C)C2 :: 1000 to 10000 nM
2. CCn1c(-c2cccnc2[C@H](C)OC)c2c3cc(ccc31)-c1cc(O)cc(c1)C[C@H](NC(=O)[C@H](C(C)C)N(C)C(=O)C1Cc3nccn3C1)C(=O)N1CCC[C@H](N1)C(=O)OCC(C)(C)C2 (some centres unmarked) :: 10 to 100 nM
3. CCn1c(-c2cccnc2[C@H](C)OC)c2c3cc(ccc31)-c1cc(O)cc(c1)C[C@H](NC(=O)[C@H](C(C)C)N(C)C(=O)[C@H]1CCN(C(=O)[C@@]3(C)CCCN3C)C1)C(=O)N1CCC[C@H](N1)C(=O)OCC(C)(C)C2 :: 10 to 100 nM

Please look at the items below and tell me IC50 for each one, in order.
1. CCn1c(-c2cccnc2[C@H](C)OC)c2c3cc(ccc31)-c1csc(n1)C[C@H](NC(=O)[C@H](C(C)C)N(C)C(=O)N1CC(N3CCOCC3)C1)C(=O)N1CCC[C@H](N1)C(=O)OCC(C)(C)C2
2. CCn1c(-c2cccnc2[C@H](C)OC)c2c3cc(ccc31)-c1csc(n1)C[C@H](NC(=O)[C@H](C(C)C)N(C)C(=O)N1CC[C@H]1CN)C(=O)N1CCC[C@H](N1)C(=O)OCC(C)(C)C2

Output line:
1: 100 to 1000 nM; 2: 100 to 1000 nM
